Conditions: siRNA; further: test system not given here
HELM strings list units from the 5' end as sugar, base in round brackets, then linkage (d deoxyribose, r ribose, m 2'-O-methyl, p phosphodiester). Strings are as the collection lists them, not checked against the first reports. ss, as = sense and antisense strand; [fl2r] = 2'-fluoro
Record form. Attribute: target mRNA knockdown. Fill in for each entry.
Write the numeric value and append its unit.

Measured target mRNA knockdown, `RNA1{m(C)p.r(U)p.m(C)p.r(C)p.m(C)p.r(C)p.m(A)p.r(G)p.m(U)p.r(C)p.m(U)p.r(C)p.m(U)p.r(C)p.m(U)p.r(U)p.m(A)p.r(A)p.m(A)p.r(T)p.r(T)}|RNA2{r(U)p.r(U)p.r(U)p.r(A)p.r(A)p.r(G)p.r(A)p.r(G)p.r(A)p.r(G)p.r(A)p.r(C)p.r(U)p.r(G)p.r(G)p.r(G)p.r(G)p.r(A)p.r(G)p.r(T)p.r(T)}$$$RNA1{StrandType:ss}|RNA2{StrandType:as}$` : 51%

Measured target mRNA knockdown, `RNA1{[fl2r](G)p.r(A)p.[fl2r](C)p.r(C)p.[fl2r](A)p.r(C)p.[fl2r](G)p.r(A)p.[fl2r](A)p.r(G)p.[fl2r](A)p.r(G)p.[fl2r](U)p.r(U)p.[fl2r](A)p.r(A)p.[fl2r](C)p.r(C)p.[fl2r](C)p.r(T)p.r(T)}|RNA2{r(G)p.r(G)p.r(G)p.r(U)p.r(U)p.r(A)p.r(A)p.r(C)p.r(U)p.r(C)p.r(U)p.r(U)p.r(C)p.r(G)p.r(U)p.r(G)p.r(G)p.r(U)p.r(C)p.r(T)p.r(T)}$$$RNA1{StrandType:ss}|RNA2{StrandType:as}$` : 51%

Measured target mRNA knockdown, `RNA1{m(C)p.r(A)p.r(G)p.r(A)p.r(G)p.m(C)p.r(A)p.r(A)p.m(U)p.m(U)p.r(G)p.m(U)p.m(U)p.m(U)p.r(A)p.m(C)p.m(C)p.m(U)p.r(A)p.r(T)p.r(T)}|RNA2{m(U)p.r(A)p.r(G)p.r(G)p.m(U)p.r(A)p.r(A)p.r(A)p.m(C)p.r(A)p.r(A)p.m(U)p.m(U)p.r(G)p.m(C)p.m(U)p.m(C)p.r(U)p.r(G)p.r(T)p.r(T)}$$$RNA1{StrandType:ss}|RNA2{StrandType:as}$` : 75%

Measured target mRNA knockdown, `RNA1{r(C)p.r(U)p.r(C)p.r(A)p.r(A)p.r(A)p.r(U)p.r(C)p.r(A)p.r(A)p.r(G)p.r(G)p.r(C)p.r(C)p.r(G)p.r(G)p.r(A)p.r(G)p.r(U)p.r(T)p.r(T)}|RNA2{r(A)p.r(C)p.r(U)p.r(C)p.r(C)p.r(G)p.r(G)p.r(C)p.r(C)p.r(U)p.m(U)p.r(G)p.r(A)p.r(U)p.r(U)p.m(U)p.r(G)p.r(A)p.r(G)p.r(T)p.r(T)}$$$RNA1{StrandType:ss}|RNA2{StrandType:as}$` : 85%

Measured target mRNA knockdown, `RNA1{r(C)p.r(G)p.r(U)p.r(A)p.r(C)p.r(G)p.r(C)p.r(G)p.r(G)p.r(A)p.r(A)p.r(U)p.r(A)p.r(C)p.r(U)p.r(U)p.r(C)p.r(G)p.r(A)p.r(T)p.r(T)}|RNA2{m(U)p.m(C)p.m(G)p.m(A)p.m(A)p.m(G)p.r(U)p.r(A)p.r(U)p.r(U)p.r(C)p.r(C)p.r(G)p.r(C)p.r(G)p.r(U)p.r(A)p.r(C)p.r(G)p.r(T)p.r(T)}$$$RNA1{StrandType:ss}|RNA2{StrandType:as}$` : 10.3%
